The compounds listed here are annotated with their remaining at 1 h, 1 µM.
experiment_description: Stability in guinea pig lung S9 fraction at 1 uM incubated for 60 mins by LC-MS/MS analysis

{"compound": "O=C(NCCCOc1cccc([C@](O)(C(=O)OCC2CCN(Cc3ccccc3)CC2)c2ccccc2)c1)c1ccc(CNC[C@H](O)c2ccc(O)c3[nH]c(=O)ccc23)cc1", "remaining at 1 h, 1 µM, %": 14}
{"compound": "O=C(NCCCOc1cccc([C@@](O)(C(=O)OCC2CCN(Cc3ccccc3)CC2)c2ccccc2)c1)c1ccc(CNCC(O)c2ccc(O)c3[nH]c(=O)ccc23)cc1 (stereo not given in full)", "remaining at 1 h, 1 µM, %": 91.9}
{"compound": "CN1CCC[C@@H](OC(=O)[C@](O)(c2ccccc2)c2cccc(OCCCNC(=O)c3ccc(CNC[C@H](O)c4ccc(O)c5[nH]c(=O)ccc45)cc3)c2)C1", "remaining at 1 h, 1 µM, %": 91.1}
{"compound": "Cn1nc(C(=O)OCCCCNC[C@H](O)c2ccc(O)c3[nH]c(=O)ccc23)cc1COc1cccc([C@@H](NC(=O)O[C@H]2CN3CCC2CC3)c2ccccc2)c1", "remaining at 1 h, 1 µM, %": 98.5}
{"compound": "CCN1CCC(COC(=O)[C@](O)(c2ccccc2)c2cccc(OCCCNC(=O)c3cc(OC)c(CNC[C@H](O)c4ccc(O)c5[nH]c(=O)ccc45)cc3F)c2)CC1.O=C(O)C(F)(F)F.O=C(O)C(F)(F)F", "remaining at 1 h, 1 µM, %": 96.5}

###

The compounds listed here are annotated with their hepatocyte CLint at 1.5 h, 1 µM.
experiment_description: in vitro
test_parameters: rat, hepatocytes
Description: Metabolic stability in rat hepatocytes assessed as clearance measured per 10^6 cells at 1 uM incubated for 90 mins by LC-MS/MS analysis

{"compound": "O=C(c1ccc(OCc2ccc(CNC[C@H](O)c3ccc(O)c4[nH]c(=O)ccc34)cc2)cc1)N1CCC(C(=O)OC2CN3CCC2CC3)(c2ccccc2)CC1 (single isomer, unassigned)", "hepatocyte CLint at 1.5 h, 1 µM, µL/min/1e6 cells": 27}
{"compound": "COc1cc(C(=O)N2CCC(c3cccc([C@](O)(C(=O)OCC4CCN(Cc5ccccc5)CC4)c4ccccc4)c3)CC2)ccc1CNC[C@H](O)c1ccc(O)c2[nH]c(=O)ccc12", "hepatocyte CLint at 1.5 h, 1 µM, µL/min/1e6 cells": 29}
{"compound": "CN1CCC[C@@H](OC(=O)[C@](O)(c2ccccc2)c2cccc(OCCCNC(=O)c3cnc(CNC[C@H](O)c4ccc(O)c5[nH]c(=O)ccc45)nc3)c2)C1.O=CO", "hepatocyte CLint at 1.5 h, 1 µM, µL/min/1e6 cells": 33}
{"compound": "CN1CCC(COC(=O)[C@](O)(c2ccccc2)c2cccc(-c3ccc(CNC(=O)c4ccc(CNC[C@H](O)c5ccc(O)c6[nH]c(=O)ccc56)cc4)s3)c2)CC1", "hepatocyte CLint at 1.5 h, 1 µM, µL/min/1e6 cells": 21}
{"compound": "COc1cc(C(=O)NCCCOc2cccc([C@](O)(C(=O)OCC3CCN(Cc4ccccc4)CC3)c3ccccc3)c2)c(F)cc1CNC[C@H](O)c1ccc(O)c2[nH]c(=O)ccc12", "hepatocyte CLint at 1.5 h, 1 µM, µL/min/1e6 cells": 33}
{"compound": "CN1CCC(COC(=O)[C@@](O)(c2ccccc2)c2cccc(-c3ccc(CNC(=O)c4ccc(CNC[C@H](O)c5ccc(O)c6[nH]c(=O)ccc56)cc4)s3)c2)CC1", "hepatocyte CLint at 1.5 h, 1 µM, µL/min/1e6 cells": 13}
